Test system: HEK-293T
PROCEDURE DETAILS: Multiplex assay against HEK293T
Type: toxicity, cell-based
RUN CONDITIONS: human, 24 h, 10 µM, compound concentration 10 uM, replicate 2
Provide the recorded Total Cell Count for the entries that follow.
One number for each entry.

Example entries and their recorded answers appear below.
1) CCOc1cc(C(=O)N2CCC(N3CCN(C)CC3)CC2)ccc1Nc1ncc2c(n1)N(C1CCCC1)c1ccccc1C(=O)N2C    222
2) COCC(=O)NC/C=C/c1ccc2ncnc(Nc3ccc(Oc4ccc(C)nc4)c(C)c3)c2c1    245

The following compounds each have a reported value; give each one's Total Cell Count.
1. Cn1nc(C(F)(F)F)cc1-c1cnc(N2CCc3cc(S(=O)(=O)Nc4c(F)cc(Cl)cc4F)cc(N4CCCC4=O)c32)nc1
2. COc1ccc(S(=O)(=O)N(CCO)c2ccccc2CN(C)C/C=C/c2ccc(Cl)cc2)cc1.O=P(O)(O)O

Response line:
[2801, 2203]
